Tested on: DU-145 prostate
method: NCI tumour cell line growth inhibition, 48 h; in the data active = GI50 below about 0.43 µM; inactive = the rest
Give one outcome, nothing more. List: 1 for active, -1 for inactive

Prompt: Called result for COC(=O)[C@@H](C)C[C@H](Cc1ccccc1)NC(=O)c1csc([C@@H](C[C@H](C(C)C)N(C)C(=O)[C@@H](NC(=O)CN(C)C)C2CC2)OC(C)=O)n1
Completion: 1

Prompt: Called result for Cc1cccc(Cc2cnc(NC(=O)/C=C/c3ccco3)s2)c1
Completion: 1

Prompt: Called result for COc1ccc(Nc2ccnc3cc(Cl)ccc23)cc1CN(CCCl)CCCl
Completion: -1

---

Test system: U251 CNS
method: NCI tumour cell line growth inhibition, 48 h
endpoint: TGI (µM)
Only the number, expressed in µM, is required.

Prompt: Please list TGI recorded for the compound CCOC(=O)/C=C/C(Br)=C(Br)/C=C/C(=O)OCC
Completion: 27.9

Prompt: Please list TGI recorded for the compound CCCCOc1nc2ccccc2cc1C1CNC(=O)c2ccccc2N1 (stereo not given)
Completion: 14.2

---

Test system: UO-31 renal
method: NCI tumour cell line growth inhibition, 48 h
endpoint: TGI

Prompt: Please list TGI recorded for the compound Cn1cc(C2=C(c3cn(C)c4cc(Cl)ccc34)C(=O)NC2=O)c2ccccc21
Completion: > 25 µM

Prompt: Please list TGI recorded for the compound COc1ccc(-c2nc3ncccn3c2-c2ccc(S(C)(=O)=O)cc2)cc1
Completion: > 100 µM

Prompt: Please list TGI recorded for the compound Cc1cncc2cccc(S(=O)(=O)N3CCCNC[C@@H]3C)c12
Completion: 23.8 µM

Prompt: Please list TGI recorded for the compound CCN(Cc1cccc(C)c1)c1ccc(CO)c(Cl)c1
Completion: 20.6 µM

Prompt: Please list TGI recorded for the compound Cc1cccc(Cc2cnc(NC(=O)/C=C/c3ccco3)s2)c1
Completion: > 100 µM

Prompt: Please list TGI recorded for the compound C[S+](C)C1(c2ccccc2)C(=O)c2ccccc2C1=O
Completion: > 56.5 µM

Prompt: Please list TGI recorded for the compound N#CC(N)(C(=O)C(=O)NCCCNC(=O)C(=O)C(N)(C#N)c1ccc(Cl)cc1)c1ccc(Cl)cc1 (stereo not given)
Completion: > 100 µM

Prompt: Please list TGI recorded for the compound COc1nc2ncc([C@@H](O)[C@H](O)CO)nc2c(=O)[nH]1
Completion: > 100 µM

Prompt: Please list TGI recorded for the compound COc1ccc(CN[C@H]2CCc3cc(OC)c(OC)c(OC)c3-c3ccc(SC)c(=O)cc32)c(OC)c1OC
Completion: 98.9 µM

Prompt: Please list TGI recorded for the compound O=c1[nH]c(=O)c2c([nH]1)[nH]c1ccccc12
Completion: > 100 µM

---

Test system: NCI-H460 lung
Give one outcome, nothing more. List: T (active), F (inactive)

Prompt: Called result for CCn1c(-c2nonc2N)nc2c(C#CC(C)(C)O)ncc(OCC3CCNCC3)c21
Completion: F

Prompt: Called result for COc1ccc(C2C3=C(COC3=O)N(CCO)c3cc4c(cc32)CCC4)cc1OC (stereo unspecified)
Completion: T

Prompt: Called result for CCN(CC)Cc1cc(Nc2c3ccc(Cl)cc3nc3c(C)cccc23)ccc1O
Completion: F

Prompt: Called result for COC(=O)C([O][Ge]([CH3])([CH3])[CH3])c1ccccc1 (stereo unspecified)
Completion: F

Prompt: Called result for O=C(N/N=C\c1cc(Br)cc(Br)c1O)N/N=C/c1cc(Br)cc(Br)c1O
Completion: F

Prompt: Called result for COc1cc2cc(Oc3ccc(NC(=O)Nc4cc(C(F)(F)F)cc(C(F)(F)F)c4)cc3)c(C)nc2cc1OCCN1CCCCC1
Completion: F
